Would you mind telling me the reported GI50 of each entry?
- Test system: OVCAR-3 ovarian
- experiment: NCI tumour cell line growth inhibition, 48 h

// lookup GI50 | system=OVCAR-3 ovarian | key= CCC(CC)COC(=O)[C@H](C)N[P@](=O)(OC[C@H]1O[C@@](C#N)(c2ccc3c(N)ncnn23)[C@H](O)[C@@H]1O)Oc1ccccc1
2350 nM

// lookup GI50 | system=OVCAR-3 ovarian | key= C=C1C(=O)O[C@H]2[C@H]1CC/C(COC(=O)NCc1[nH]nc3ccccc13)=C\CC[C@@]1(C)O[C@@H]21
1060 nM

// lookup GI50 | system=OVCAR-3 ovarian | key= Cc1ccc2c(NCCCN(C)C)c3c(C)nn(C)c3nc2c1
4130 nM

// lookup GI50 | system=OVCAR-3 ovarian | key= CN1CCN(Cc2ccc(NC(=O)c3nc4ccc5[nH]ncc5c4c4c3CCCC4)cc2C(F)(F)F)CC1
868 nM

// lookup GI50 | system=OVCAR-3 ovarian | key= O=CC(NC(=O)N(CCCl)N=O)C(O)C(O)C(O)CO (centres undefined)
> 625000 nM

// lookup GI50 | system=OVCAR-3 ovarian | key= C=C1C(=O)O[C@H]2[C@H]1CC/C(COC(=O)NCc1ccc(Cn3c(=O)sn(CCI)c3=O)cc1)=C\CC[C@@]1(C)O[C@@H]21
1640 nM

// lookup GI50 | system=OVCAR-3 ovarian | key= N#Cc1c(-c2ccccc2)n([O-])c2ccccc2[n+]1=O
22300 nM

// lookup GI50 | system=OVCAR-3 ovarian | key= COc1cc(-c2cc(/C=C3\C(=O)Nc4ccc(Cl)cc43)[nH]n2)cc(OC)c1OC
6160 nM

// lookup GI50 | system=OVCAR-3 ovarian | key= O=C(C(Br)C(Br)c1ccccc1)C(Br)C(Br)c1ccccc1 (centres undefined)
511 nM

###

- Tested on: RXF-631 renal
- experiment: NCI tumour cell line growth inhibition, 48 h
readoutType: TGI

Look up TGI: c1ccc(C(c2ccccc2)c2ccncc2)cc1
> 100 µM

Look up TGI: COC(=O)C(Cc1c[nH]c2ccccc12)NC(=O)C(Cc1c[nH]c2ccccc12)NC(=O)OCc1ccccc1 (stereo unspecified)
51.1 µM

Look up TGI: CN1C(c2ccccc2)CC(=NOCc2ccccc2)CC1c1ccccc1 (stereo unspecified)
> 61.9 µM

Look up TGI: O=C1c2ccccc2C(=O)N1CCn1nc(-c2ccccc2)cc(-c2ccccc2)c1=O
> 100 µM

Look up TGI: CC12OC3(O)C4C5CC(C6C5C3C61)C42 (stereo unspecified)
> 100 µM

Look up TGI: NC(=O)c1ncn2c1NCC1OC2C(O)C1O (stereo unspecified)
> 100 µM

###

Would you mind telling me the reported TGI of each entry?
- Test system: HL-60(TB) leukemia
- experiment: NCI tumour cell line growth inhibition, 48 h
Value expressed in µM; do not type the unit.

Look up TGI: COC(=O)C(Cc1c[nH]c2ccccc12)NC(=O)C(Cc1c[nH]c2ccccc12)NC(=O)OCc1ccccc1 (stereo not given)
48.7

Look up TGI: Cc1ccc(-c2c(C#N)c(N)[nH]c(=S)c2C#N)cc1
52.8

Look up TGI: Cc1cc(I)cc(CN(C)CCN(C)C)c1O
55.9

###

- System: M14 melanoma
- experiment: NCI tumour cell line growth inhibition, 48 h; in the data active means GI50 below about 0.43 µM; inactive means the rest
The reply should name one outcome from 1 = active, -1 = inactive

Dear colleague, could you share the recorded outcome for CSc1nn2c(-c3ccc4ccccc4c3)ccnc2c1C#N when you have a moment?
1

Dear colleague, could you share the recorded outcome for O=C(NNC(=O)C1CCN(S(=O)(=O)c2ccc(-c3ccccc3)cc2)CC1)c1ccc(C(F)(F)F)cc1 when you have a moment?
-1

Dear colleague, could you share the recorded outcome for CCCCCCCCCCCCCCCCNC(=O)OC(C)C when you have a moment?
-1

Dear colleague, could you share the recorded outcome for O=C(NC1CCCCC1)NS(=O)(=O)c1ccc(-n2nc3c(c2-c2cccs2)Cc2ccccc2-3)cc1 when you have a moment?
-1

Dear colleague, could you share the recorded outcome for COC(=O)c1cc2cc(-c3ccc(OC)cc3)cnc2[nH]1 when you have a moment?
-1

Dear colleague, could you share the recorded outcome for CN(C)c1ccc(O)c2c1CC1CC3C(N(C)C)C(=O)C(C(N)=O)=C(O)C3(O)C(=O)C1=C2O (stereo unspecified) when you have a moment?
-1

Dear colleague, could you share the recorded outcome for CCC(CC)COC(=O)[C@H](C)N[P@](=O)(OC[C@H]1O[C@@](C#N)(c2ccc3c(N)ncnn23)[C@H](O)[C@@H]1O)Oc1ccccc1 when you have a moment?
-1

Dear colleague, could you share the recorded outcome for Nc1nc2cc(-c3ccc4ncc(C(=O)N5CCOCC5)n4c3)ccc2o1 when you have a moment?
-1

Dear colleague, could you share the recorded outcome for CCN(CCCNC(=O)Cc1cc(=O)oc2cc(N(C)C)ccc12)CCNc1ccnc2cc(Cl)ccc12 when you have a moment?
-1

Dear colleague, could you share the recorded outcome for CNCCCNc1c2cc(OC)ccc2nc2cccc([N+](=O)[O-])c12 when you have a moment?
1

Dear colleague, could you share the recorded outcome for CC(=O)OCC1OC(OC2CCCC[Si](c3ccccc3)(c3ccccc3)O2)C(OC(C)=O)C(OC(C)=O)C1OC(C)=O (stereo unspecified) when you have a moment?
-1

Dear colleague, could you share the recorded outcome for Cc1ccc2c(NCCCN(C)C)c3c(C)nn(C)c3nc2c1 when you have a moment?
-1

Dear colleague, could you share the recorded outcome for CCN(CC)CCCN1C(=O)c2c(c(C)c3c(oc4ccc(O)cc43)c2C)C1=O when you have a moment?
-1

Dear colleague, could you share the recorded outcome for Cc1nn(-c2ccccc2)c(-n2ccnc2)c1/C=N/Nc1nc(-c2ccc(Cl)c(Cl)c2)cs1 when you have a moment?
-1

Dear colleague, could you share the recorded outcome for CC(C)(Oc1ccc(Cl)cc1)C(=O)NC1C2CC3CC1CC(NS(C)(=O)=O)(C3)C2 (stereo unspecified) when you have a moment?
-1

Dear colleague, could you share the recorded outcome for O=C1c2ccc3c4c(ccc(c24)C(=O)N1CCCNCc1ccccc1F)C(=O)N(CCCNCc1ccccc1F)C3=O when you have a moment?
1

Dear colleague, could you share the recorded outcome for O=[N+]([O-])c1cc([N+](=O)[O-])c(N2CCCC2)cc1NN=C(c1ccc(O)cc1)c1ccc(O)cc1 when you have a moment?
-1

Dear colleague, could you share the recorded outcome for C=C(C)[C@@H]1CC[C@]2(COC(C)=O)CC[C@]3(C)[C@H](CC[C@@H]4[C@@]5(C)CCCN(C(C)=O)C(C)(C)[C@@H]5CC[C@]43C)[C@@H]12 when you have a moment?
-1

Dear colleague, could you share the recorded outcome for NS(=O)(=O)c1ccc(Nc2ncc(-c3ccccc3)o2)cc1 when you have a moment?
-1

Dear colleague, could you share the recorded outcome for CC(C)(C)CC(C)(C)c1ccc(OCCSC(=N)N)cc1 when you have a moment?
-1

Dear colleague, could you share the recorded outcome for O=C(C(Br)C(Br)c1ccccc1)C(Br)C(Br)c1ccccc1 (stereo unspecified) when you have a moment?
-1

###

- Tested on: MDA-MB-231 breast
- experiment: NCI tumour cell line growth inhibition, 48 h
readoutType: TGI

Look up TGI: C=CC(O)C#Cc1cnc(OC)nc1OC (configuration not stated)
> 100 µM

Look up TGI: O=c1cc(NNc2ccc3ccccc3c2)[nH]c(=S)[nH]1
> 100 µM

Look up TGI: CN(CCN(C)CCN(C)C(=O)Cc1ccc(Cl)c(Cl)c1)CCN1CCCC1
53.9 µM

Look up TGI: Cc1nn(C(=O)Cc2ccccc2)c2c1C(c1ccc3ccccc3c1O)SC(N)=N2 (configuration not stated)
> 100 µM

Look up TGI: C=C1[C@@H](OC(C)=O)[C@H]2[C@@H](OC(C)=O)[C@@](C)(OC(C)=O)C[C@]2(OC(C)=O)C(=O)[C@@H](C)/C=C/C(C)(C)C(=O)C[C@H]1OC(C)=O
> 100 µM

Look up TGI: CNc1ccc(S(=O)Nc2ccc(OC)cc2)cc1 (configuration not stated)
> 100 µM

Look up TGI: Clc1cccc(Cl)c1C(Nc1nncs1)Nc1nncs1
> 100 µM

Look up TGI: [N-]=[N+]=NC1=CC(=O)c2cccc3cccc1c23
> 100 µM

Look up TGI: Cc1ccc(N=NC(=O)NNc2ccc(C)c([N+](=O)[O-])c2)cc1[N+](=O)[O-]
> 100 µM

Look up TGI: CC1=C(C#N)C2C(=C(C)N1)C(N)=Nc1ccccc12 (configuration not stated)
> 100 µM

Look up TGI: Cc1nnc([S-])o1.[Au+].c1ccc([PH+](c2ccccc2)c2ccccc2)cc1
3.11 µM

Look up TGI: C/C=C(/C(=C/C)c1ccc(O)cc1)c1ccc(O)cc1
22.2 µM

Look up TGI: COc1cc(-c2cc(/C=C3\C(=O)Nc4ccc(Cl)cc43)[nH]n2)cc(OC)c1OC
> 100 µM

Look up TGI: O=CC(NC(=O)N(CCCl)N=O)C(O)C(O)C(O)CO (configuration not stated)
> 1250 µM

Look up TGI: CCCCC/C=C1\CC(CO)(COC(=O)CC(C(C)C)C(C)C)OC1=O (configuration not stated)
40.2 µM

Look up TGI: Cn1cc(C2=C(c3cn(C)c4cc(C(=O)O)ccc34)C(=O)NC2=O)c2ccccc21
> 25 µM

Look up TGI: CCCCC/C=C/C(=O)CCc1ccc(O)c(OC)c1
32.8 µM

Look up TGI: CC(C)OP(=O)(CCCCCCCCC/C=C/c1ccc2c(c1)OCCOCCOCCOCCO2)OC(C)C
12.6 µM

Look up TGI: CC(=O)/C=C/CCC(=O)/C=C/C(=O)OC(CCC(=O)/C=C/C(=O)O)CC(C)=O (configuration not stated)
> 100 µM

Look up TGI: CC1=C(C(=O)Nc2ccc(Cl)c(Cl)c2)C(c2ccccc2Cl)NC(=S)N1 (configuration not stated)
17.3 µM

Look up TGI: Nc1ccccc1C(=O)CCc1c[nH]c2ccccc12
> 100 µM

Look up TGI: COc1ccc(CN2CCc3c(Sc4ccccc4)nc(N)nc3C2=O)c(OC)c1
76.9 µM
